Below is a list of entries, each paired with its recorded inhibition at 1 µM value.
biological target: Human PI3K gamma (Homo sapiens); construct: His (N); host or cells: SF9 insect cells (baculovirus); experiment: Human PI3K gamma enzyme assay (HTRF); format: biochemical; conditions: concentration not given; b1389 states 1.0 μM for PI3K δ and γ; read-out: p110 gamma Percent Inhibition
Sequence (P48736 whole entry): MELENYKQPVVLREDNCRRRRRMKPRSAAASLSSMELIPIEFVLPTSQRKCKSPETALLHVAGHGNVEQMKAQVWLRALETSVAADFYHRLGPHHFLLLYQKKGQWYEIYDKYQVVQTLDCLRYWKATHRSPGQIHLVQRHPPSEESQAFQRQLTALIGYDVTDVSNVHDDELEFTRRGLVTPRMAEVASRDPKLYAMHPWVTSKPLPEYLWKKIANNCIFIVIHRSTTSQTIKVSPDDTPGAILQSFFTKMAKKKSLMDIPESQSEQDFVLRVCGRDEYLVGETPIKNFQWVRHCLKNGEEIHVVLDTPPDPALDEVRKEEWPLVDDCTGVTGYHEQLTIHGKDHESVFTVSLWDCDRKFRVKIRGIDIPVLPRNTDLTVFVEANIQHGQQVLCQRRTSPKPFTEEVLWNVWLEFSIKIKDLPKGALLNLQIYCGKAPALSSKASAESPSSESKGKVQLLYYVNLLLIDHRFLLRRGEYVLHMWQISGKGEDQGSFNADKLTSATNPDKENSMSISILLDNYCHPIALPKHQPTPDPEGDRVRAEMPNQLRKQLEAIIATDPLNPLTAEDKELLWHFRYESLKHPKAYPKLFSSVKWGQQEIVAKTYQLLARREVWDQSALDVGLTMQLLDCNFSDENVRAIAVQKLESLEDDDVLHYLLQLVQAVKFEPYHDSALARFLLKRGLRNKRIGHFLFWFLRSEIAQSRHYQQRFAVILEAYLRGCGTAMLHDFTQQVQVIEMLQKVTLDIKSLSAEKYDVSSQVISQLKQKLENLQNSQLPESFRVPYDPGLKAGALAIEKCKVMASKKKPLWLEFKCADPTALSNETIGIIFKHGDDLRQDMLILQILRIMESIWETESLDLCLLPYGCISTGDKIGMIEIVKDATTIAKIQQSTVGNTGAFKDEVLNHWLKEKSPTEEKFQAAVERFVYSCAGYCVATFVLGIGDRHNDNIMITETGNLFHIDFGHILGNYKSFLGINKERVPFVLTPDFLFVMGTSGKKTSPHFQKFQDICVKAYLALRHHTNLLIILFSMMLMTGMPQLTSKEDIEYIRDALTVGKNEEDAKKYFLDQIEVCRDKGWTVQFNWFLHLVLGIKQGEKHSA
Please respond with the number in % and leave the unit unwritten.

Before answering, review these 10 worked examples.
> print(dat)
                                    molecule                     assay.target  measured
 1  CC(=O)Nc1cc(-c2cc(C(OCC3CCCC3)c3ccc(Cl)cc3)c(-c3nnc[nH]3)s2)ccn1 (centres unmarked) [Compound 173]  Human PI3K gamma (Homo sapiens)         3
 2  CC(=O)Nc1cc(-c2cc(C(c3ccc(Cl)cc3)N3CC[C@H](CO)C3)c(-c3nnc[nH]3)s2)ccn1 (some centres unmarked) [Compound 269]  Human PI3K gamma (Homo sapiens)        15
 3  Cc1c(F)cccc1C(O)c1cc(-c2ccncc2)sc1-c1nnc[nH]1 (centres unmarked) [Compound 138]  Human PI3K gamma (Homo sapiens)        13
 4  N#Cc1c(N2CCOC(CO)C2)sc(C(=O)O)c1Cc1ccc2ccccc2c1 (centres unmarked) [Compound 297]  Human PI3K gamma (Homo sapiens)        33
 5  OC(c1ccc(-c2cccnc2)cc1)c1cc(-c2ccncc2)sc1-c1nnc[nH]1 (centres unmarked) [Compound 214]  Human PI3K gamma (Homo sapiens)        14
 6  O=C(O)c1sc(-c2ccncc2)cc1C(O)c1ccc2ccccc2c1 (centres unmarked) [Compound 205]  Human PI3K gamma (Homo sapiens)        64
 7  COc1ccc2ccc(Cc3c(C(=O)O)sc(N4CCOCC4)c3C#N)cc2c1 [Compound 361]  Human PI3K gamma (Homo sapiens)        60
 8  OC(c1ccc(C(F)(F)F)cc1)c1cc(-c2ccncc2)sc1-c1nnc[nH]1 (centres unmarked) [Compound 142]  Human PI3K gamma (Homo sapiens)         7
 9  N#Cc1c(-c2ccnnc2)sc(-c2nnc[nH]2)c1C(c1ccc(Cl)cc1)N1CCNCC1 (centres unmarked) [Compound 227]  Human PI3K gamma (Homo sapiens)         3
10  COC(=O)Nc1cc(-c2sc(-c3nnc[nH]3)c(C(O)c3ccc(Cl)cc3)c2C#N)ccn1 (centres unmarked) [Compound 195]  Human PI3K gamma (Homo sapiens)         8

Which inhibition at 1 µM is reported for this molecule? CC(c1ccc(Cl)c(Cl)c1)c1c(C(=O)O)sc(N2CCOCC2)c1C#N (centres unmarked) [Compound 321]
59

Which inhibition at 1 µM is reported for this molecule? OC(c1ccc(Br)o1)c1cc(-c2ccncc2)sc1-c1nnc[nH]1 (centres unmarked) [Compound 260]
6

Which inhibition at 1 µM is reported for this molecule? O=C(O)c1sc(N2CCOCC2)nc1Cc1cc(F)c2ccccc2c1 [Compound 338]
73

Which inhibition at 1 µM is reported for this molecule? CC(=O)Nc1cc(-c2cc(C(c3ccc(Cl)cc3)N3CCN(C)CC3)c(-c3nnc[nH]3)s2)ccn1 (centres unmarked) [Compound 267]
43

Which inhibition at 1 µM is reported for this molecule? CC(=O)Nc1cc(-c2cc(C(c3ccc(Cl)cc3)n3cccn3)c(-c3nnc[nH]3)s2)ccn1 (centres unmarked) [Compound 206]
11

Which inhibition at 1 µM is reported for this molecule? Clc1cccc(Cc2nc(-c3ccncc3)sc2-c2nnc[nH]2)c1 [Compound 137]
12

Which inhibition at 1 µM is reported for this molecule? O=C(O)c1sc(N2CCOCC2)nc1Cc1cc(Cl)c(Cl)cc1F [Compound 290]
49

Which inhibition at 1 µM is reported for this molecule? CC(=O)Nc1cc(-c2cc(C(c3ccc(Cl)cc3)N3CC[C@@H](O)C3)c(-c3nnc[nH]3)s2)ccn1 (some centres unmarked) [Compound 212]
38

Which inhibition at 1 µM is reported for this molecule? N#Cc1c(N2CCOCC2)sc(C(=O)O)c1Cc1ccc2ccncc2c1 [Compound 309]
66

Which inhibition at 1 µM is reported for this molecule? CC(=O)Nc1cc(-c2cc(C(c3ccc(Cl)cc3)N3CCN(C(C)=O)CC3)c(-c3nnc[nH]3)s2)ccn1 (centres unmarked) [Compound 196]
12

Which inhibition at 1 µM is reported for this molecule? CC(=O)Nc1cc(-c2cc(C(c3ccc(Cl)cc3)N3CCNCC3)c(-c3nnc[nH]3)s2)ccn1 (centres unmarked) [Compound 154]
39

Which inhibition at 1 µM is reported for this molecule? O=C(NO)c1sc(N2CCOCC2)nc1Cc1ccc(Cl)c(Cl)c1 [Compound 298]
38

Which inhibition at 1 µM is reported for this molecule? COc1ccc2cc(Cc3nc(N4CCOCC4)sc3C(=O)O)ccc2c1 [Compound 288]
19

Which inhibition at 1 µM is reported for this molecule? CC(c1ccc2ccccc2c1)c1nc(N2CCOCC2)sc1C(=O)O (centres unmarked) [Compound 346]
23

Which inhibition at 1 µM is reported for this molecule? OC(c1cnc2ccccc2n1)c1cc(-c2ccncc2)sc1-c1nnc[nH]1 (centres unmarked) [Compound 263]
43

Which inhibition at 1 µM is reported for this molecule? CC(=O)Nc1cc(-c2cc(C(c3ccc(Cl)cc3)N3CCN(S(C)(=O)=O)CC3)c(-c3nnc[nH]3)s2)ccn1 (centres unmarked) [Compound 224]
15

Which inhibition at 1 µM is reported for this molecule? COc1ccc(C(O)c2cc(-c3ccncc3)sc2-c2nnc[nH]2)cc1OC (centres unmarked) [Compound 246]
8

Which inhibition at 1 µM is reported for this molecule? O=C(O)c1sc(N2CCOCC2)nc1Cc1ccc2ccncc2c1 [Compound 344]
59

Which inhibition at 1 µM is reported for this molecule? OC(c1ccc(Cl)c(F)c1)c1cc(-c2ccncc2)sc1-c1nnc[nH]1 (centres unmarked) [Compound 232]
26
